- method-summary: CHI Log D procedure
- Format: physicochemical
- conditions-used: pH 7.4, CHI Log D
measured-metric: chromatographic logD
Please reply with the value in numeric form only.

Example results:
CC(=O)N[C@@H](Cc1ccccc1)C(=O)N[C@@H](CC(=O)O)C(=O)N[C@@H](C)C(=O)N[C@]1(C)CCN(C)C(=O)OCC=CCC[C@@](C)(C(=O)N[C@@H](Cc2ccccc2)C(=O)N[C@@H](Cc2c[nH]c3ccccc23)C(=O)N[C@@H](CCC(N)=O)C(N)=O)NC(=O)[C@H](C(C)C)NC(=O)[C@H](Cc2ccccc2)NC(=O)[C@H](C)NC(=O)[C@H](C)NC(=O)[C@H](CC(=O)O)NC(=O)[C@H](CC(=O)O)NC1=O (single isomer, unassigned) | 1.09
CC(=O)N1CCC[C@]12CC=CCCCC1(CCCC=CCCCOC(=O)N3CC[C@@](C(=O)N[C@@H](Cc4ccsc4)C(=O)N[C@@H](Cc4csc5ccccc45)C(=O)N[C@@H](Cc4c[nH]cn4)C(N)=O)(C3)NC(=O)[C@H](CC(N)=O)NC(=O)[C@H](Cc3ccccc3)NC(=O)[C@H](C)NC(=O)[C@H](C)NC(=O)[C@H](CCCNC(N)=O)NC(=O)[C@H](CC(=O)O)NC1=O)NC(=O)[C@H](CC(C)(C)C)NC(=O)[C@H](CC(=O)O)NC2=O (stereo partly drawn) | 2.26
CC(=O)N1CCC[C@]12CC=CCCCC1(CCCC=CCCCOC(=O)N3CC[C@@](C(=O)N[C@@H](Cc4ccccc4Cl)C(=O)N[C@@H](Cc4csc5ccccc45)C(=O)N[C@@H](CCC(N)=O)C(=O)NCCCCCCN)(C3)NC(=O)[C@H]([C@@H](C)O)NC(=O)[C@H](Cc3ccccc3)NC(=O)[C@H](C)NC(=O)[C@H](C)NC(=O)[C@H](CN(CC(=O)O)CC(F)(F)F)NC(=O)[C@H](CC(=O)O)NC1=O)NC(=O)[C@H](CC(C)(C)C)NC(=O)[C@H](CC(=O)O)NC2=O (stereo partly drawn) | 2.56
COc1ccccc1C[C@H](NC(=O)[C@]12CCN(C1)C(=O)OCCCC=CCCCC1(CCCC=CC[C@]3(CCCN3C(C)=O)C(=O)N[C@@H](CC(=O)O)C(=O)N[C@@H](CC3CCCCC3)C(=O)N1)C(=O)N[C@@H](CC(=O)O)C(=O)N[C@@H](CC(=O)O)C(=O)N[C@@H](C)C(=O)N[C@@H](C)C(=O)N[C@@H](Cc1ccccc1)C(=O)N[C@@H](CO)C(=O)N2)C(=O)N[C@@H](Cc1csc2ccccc12)C(=O)N[C@@H](CO)C(N)=O (stereo partly drawn) | 2.38

Quick one: chromatographic logD of CC(=O)N[C@@H](Cc1ccccc1)C(=O)N[C@@H](CC(=O)O)C(=O)N[C@@H](C)C(=O)N[C@]1(C)CCCCCCC=CCOC(=O)N2CC[C@@](C(=O)N[C@@H](Cc3ccc(C(N)=O)cc3)C(=O)N[C@@H](Cc3c[nH]c4ccccc34)C(=O)N[C@@H](CCC(N)=O)C(N)=O)(C2)NC(=O)[C@H](C(C)C)NC(=O)[C@H](Cc2ccccc2)NC(=O)[C@H](C)NC(=O)[C@H](C)NC(=O)[C@H](CC(=O)O)NC(=O)[C@H](CC(=O)O)NC1=O (single isomer, unassigned) ?
0.958

Please do the same for CC(=O)N1CCC[C@]12CC=CCCCC1(CCCC=CCCCOC(=O)N3CC[C@@](C(=O)N[C@@H](Cc4ccccc4F)C(=O)N[C@@H](Cc4csc5ccccc45)C(=O)N[C@@H](CO)C(N)=O)(C3)NC(=O)[C@H]([C@@H](C)O)NC(=O)[C@H](Cc3ccccc3)NC(=O)[C@H](C)NC(=O)[C@H](C)NC(=O)[C@H](CC(N)=O)NC(=O)[C@H](CC(=O)O)NC1=O)NC(=O)[C@H](CC(C)(C)C)NC(=O)[C@H](CC(=O)O)NC2=O (stereo partly drawn) as well.
2.45

Please do the same for CC(=O)N1CCC[C@]12CC=CCCCC1(CCCC=CCCCCCC[C@@](C)(C(=O)N[C@@H](Cc3ccc(O)cc3)C(=O)N[C@@H](Cc3csc4ccccc34)C(=O)N[C@@H](CCC(N)=O)C(N)=O)NC(=O)[C@H](C(C)C)NC(=O)[C@H](Cc3ccccc3)NC(=O)[C@H](C)NC(=O)[C@H](C)NC(=O)[C@H](CC(=O)O)NC(=O)[C@H](CC(=O)O)NC1=O)NC(=O)[C@H](C)NC(=O)[C@H](CC(=O)O)NC2=O (stereo partly drawn) as well.
1.73

Please do the same for CC(=O)N1CCC[C@]12CC=CCCCC1(CCCC=CCCCCCC[C@@](C)(C(=O)N[C@@H](Cc3cccc(F)c3)C(=O)N[C@@H](Cc3c[nH]c4ccccc34)C(=O)N[C@@H](CCC(N)=O)C(N)=O)NC(=O)[C@H](CCC(N)=O)NC(=O)[C@H](Cc3cccs3)NC(=O)[C@H](C)NC(=O)[C@H](C)NC(=O)[C@H](CCC(=O)O)NC(=O)[C@H](CC(=O)O)NC1=O)NC(=O)[C@H](C)NC(=O)[C@H](CC(=O)O)NC2=O (stereo partly drawn) as well.
1.88

Please do the same for CC(=O)N1CCC[C@]12CC=CCCCC1(CCCC=CCCCCCC[C@@](C)(C(=O)N[C@@H](Cc3ccccc3)C(=O)N[C@@H](Cc3csc4ccccc34)C(=O)N[C@@H](CCC(N)=O)C(N)=O)NC(=O)[C@H](C(C)C)NC(=O)[C@H](Cc3cccc(C(F)(F)F)c3)NC(=O)[C@H](C)NC(=O)[C@H](C)NC(=O)[C@H](CC(=O)O)NC(=O)[C@H](CC(=O)O)NC1=O)NC(=O)[C@H](C)NC(=O)[C@H](CC(=O)O)NC2=O (stereo partly drawn) as well.
2.3

Origin of values: patent US20240116985A1
